Consider compounds characterized by their pKi with Bcl-2-like protein 1 (Homo sapiens, UniProt Q07817).
Sequence (Q07817 whole entry): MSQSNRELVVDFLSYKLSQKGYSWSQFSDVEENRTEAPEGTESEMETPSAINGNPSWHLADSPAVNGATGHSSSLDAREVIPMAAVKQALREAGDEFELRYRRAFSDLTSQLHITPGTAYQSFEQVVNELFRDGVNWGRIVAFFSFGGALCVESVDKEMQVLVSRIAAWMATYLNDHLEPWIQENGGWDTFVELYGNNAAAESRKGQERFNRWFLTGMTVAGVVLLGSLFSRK
One number for each entry, as −log10 of the molar value.

- O=C(Nc1ccc(C(=O)NS(=O)(=O)c2ccc(NCCSc3ccccc3)c([N+](=O)[O-])c2)cc1)c1cccc(F)c1: 5.68
- CC(=O)N[C@@H](Cc1c[nH]c2ccccc12)C(=O)Nc1ccc(C(=O)NS(=O)(=O)c2ccc(NCCSc3ccccc3)c([N+](=O)[O-])c2)cc1: 5.19
- O=C(Nc1ccc(C(=O)NS(=O)(=O)c2ccc(NCCSc3ccccc3)c([N+](=O)[O-])c2)cc1)c1ccccc1: 5.60
- O=C(Nc1ccc(C(=O)NS(=O)(=O)c2ccc(NCCSc3ccccc3)c([N+](=O)[O-])c2)cc1)c1ccc(F)cc1: 5.71

Okay, next one:
For `O=C(Nc1ccc(C(=O)NS(=O)(=O)c2ccc(NCCSc3ccccc3)c([N+](=O)[O-])c2)cc1)c1ccc(Br)cc1` , write its pKi.
5.82

The values you see were collected from ChEMBL document CHEMBL1938241.
